All figures here come from patent US8592422B2.

TARGET_OF_ASSAY: human mGluR5a receptor (Homo sapiens, UniProt P41594)
Construct: cDNA subcloned into pcDNA3.1(-)
Sequence (P41594 21-1180 isoform P41594-2 limits assumed): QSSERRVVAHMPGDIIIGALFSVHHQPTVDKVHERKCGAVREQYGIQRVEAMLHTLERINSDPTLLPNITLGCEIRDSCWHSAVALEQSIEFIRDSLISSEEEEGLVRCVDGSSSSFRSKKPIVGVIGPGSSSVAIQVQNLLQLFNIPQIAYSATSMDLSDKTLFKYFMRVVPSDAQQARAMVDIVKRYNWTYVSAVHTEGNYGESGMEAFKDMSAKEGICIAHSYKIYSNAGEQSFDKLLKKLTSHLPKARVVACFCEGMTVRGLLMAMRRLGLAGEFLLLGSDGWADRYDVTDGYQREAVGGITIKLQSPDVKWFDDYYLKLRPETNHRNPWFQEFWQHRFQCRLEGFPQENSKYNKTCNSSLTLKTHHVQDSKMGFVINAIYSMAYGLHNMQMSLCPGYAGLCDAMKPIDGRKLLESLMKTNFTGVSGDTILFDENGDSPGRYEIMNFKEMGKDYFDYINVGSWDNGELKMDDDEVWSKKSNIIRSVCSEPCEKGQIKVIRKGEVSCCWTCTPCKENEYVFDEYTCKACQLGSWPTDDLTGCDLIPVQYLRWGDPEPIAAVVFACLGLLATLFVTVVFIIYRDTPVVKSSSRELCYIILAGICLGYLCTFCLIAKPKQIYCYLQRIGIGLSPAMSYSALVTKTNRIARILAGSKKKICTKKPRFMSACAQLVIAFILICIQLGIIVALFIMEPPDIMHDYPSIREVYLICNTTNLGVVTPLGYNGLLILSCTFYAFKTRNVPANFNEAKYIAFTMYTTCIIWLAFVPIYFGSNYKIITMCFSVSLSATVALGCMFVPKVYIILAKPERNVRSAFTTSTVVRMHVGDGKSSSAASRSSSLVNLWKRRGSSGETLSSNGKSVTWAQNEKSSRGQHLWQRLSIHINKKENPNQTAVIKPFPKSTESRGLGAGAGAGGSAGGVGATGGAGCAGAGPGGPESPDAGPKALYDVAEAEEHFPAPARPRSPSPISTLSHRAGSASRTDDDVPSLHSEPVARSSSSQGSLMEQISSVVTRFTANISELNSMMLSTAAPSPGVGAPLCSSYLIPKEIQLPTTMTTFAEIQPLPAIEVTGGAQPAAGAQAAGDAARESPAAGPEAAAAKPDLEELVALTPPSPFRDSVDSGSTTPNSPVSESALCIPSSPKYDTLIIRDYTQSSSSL
EXPERIMENT: Cell-based functional Ca2+ mobilization assay (FDSS), potentiation of glutamate EC20 response
RUN_PARAMETERS: HEK cells transfected with human mGluR5 (H10H or H12H); in presence of EC20 glutamate; read-out: EC50
MEASUREMENT_KIND: EC50 (µM)

MOLECULE: Cc1ccccc1N1C(=O)c2cc(COc3ccccc3)nn2C[C@H]1C [Example 154]
UNITS_OF_MEASURE: µM
LIMIT_OPERATOR: =
NUMERIC_VALUE: 0.029
//
MOLECULE: COc1cnc(C)nc1N1CCn2nc(COc3ccccc3)cc2C1=O [Example 119]
UNITS_OF_MEASURE: µM
LIMIT_OPERATOR: =
NUMERIC_VALUE: 2.3
//
MOLECULE: Cc1cccc(OCc2cc3n(n2)CCN(c2ccc(F)cn2)C3=O)c1 [Example 177]
UNITS_OF_MEASURE: µM
LIMIT_OPERATOR: =
NUMERIC_VALUE: 0.38
//
MOLECULE: Cc1cccc(N2CCn3nc(COc4ccccn4)cc3C2=O)n1 [Example 206]
UNITS_OF_MEASURE: µM
LIMIT_OPERATOR: =
NUMERIC_VALUE: 1.51
//
MOLECULE: O=C1c2cc(COc3ccccc3)nn2CCN1c1ccccn1 [Example 12]
UNITS_OF_MEASURE: µM
LIMIT_OPERATOR: =
NUMERIC_VALUE: 0.871
//
MOLECULE: CN(C)c1cncc(N2CCn3nc(COc4ccccc4)cc3C2=O)n1 [Example 280]
UNITS_OF_MEASURE: µM
LIMIT_OPERATOR: =
NUMERIC_VALUE: 0.355
//
MOLECULE: Cc1ccc(N2CCn3nc(COc4ccccc4)cc3C2=O)nn1 [Example 84]
UNITS_OF_MEASURE: µM
LIMIT_OPERATOR: >
NUMERIC_VALUE: 10
//
MOLECULE: CC(Oc1ccccc1)c1cc2n(n1)CCN(CC1CC1)C2=O (racemic) [Example 257]
UNITS_OF_MEASURE: µM
LIMIT_OPERATOR: >
NUMERIC_VALUE: 30.2
